Examples of compounds with documented MIC follow.
Tested on: H. influenzae ATCC49247
assay.info: MIC, microdilution broth method (NCCLS)
Assay type: cell-based
measurement.setup: Haemophilus influenzae, Table 2, 3,6-Dicarbamoyl Macrolide Derivatives, read-out: MIC Values, E: H. influenzae ATCC49247
quantity: MIC (µg/mL)

INSERT INTO measurements (structure_smiles_string, quantity, quantitative_readout) VALUES
  ('CC[C@H]1OC(=O)[C@H](C)[C@@H](OC(=O)N(CC)c2cccnc2)[C@H](C)[C@@H](O[C@@H]2O[C@H](C)C[C@H](N(C)C)[C@H]2O)[C@](C)(OC(=O)NC/C=C/c2ccc(-c3ncccn3)cc2)C[C@@H](C)C(=O)[C@H](C)[C@H]2NC(=O)O[C@@]21C', 'MIC', 8),
  ('CC[C@H]1OC(=O)[C@H](C)[C@@H](OC(=O)Nc2ccc(Cl)c(Cl)c2)[C@H](C)[C@@H](O[C@@H]2O[C@H](C)C[C@H](N(C)C)[C@H]2O)[C@](C)(OC(=O)NC/C=C/c2ccc(-c3ncccn3)cc2)C[C@@H](C)C(=O)[C@H](C)[C@H]2NC(=O)O[C@@]21C', 'MIC', 16),
  ('CC[C@H]1OC(=O)[C@H](C)[C@@H](OC(=O)N(CC)CC)[C@H](C)[C@@H](O[C@@H]2O[C@H](C)C[C@H](N(C)C)[C@H]2O)[C@](C)(OC(=O)NC/C=C/c2ccc(-c3ncccn3)cc2)C[C@@H](C)C(=O)[C@H](C)[C@H]2NC(=O)O[C@@]21C', 'MIC', 4),
  ('CC[C@H]1OC(=O)[C@H](C)[C@@H](OC(=O)N(CC)CCO)[C@H](C)[C@@H](O[C@@H]2O[C@H](C)C[C@H](N(C)C)[C@H]2O)[C@](C)(OC(=O)NC/C=C/c2ccc(-c3ncccn3)cc2)C[C@@H](C)C(=O)[C@H](C)[C@H]2NC(=O)O[C@@]21C', 'MIC', 16),
  ('CC[C@H]1OC(=O)[C@H](C)[C@@H](OC(=O)Nc2ccc(OC)nc2)[C@H](C)[C@@H](O[C@@H]2O[C@H](C)C[C@H](N(C)C)[C@H]2O)[C@](C)(OC(=O)NC/C=C/c2ccc(-c3ncccn3)cc2)C[C@@H](C)C(=O)[C@H](C)[C@H]2NC(=O)O[C@@]21C', 'MIC', 4);

###

Tested on: S. pneumoniae ATCC49619
assay.info: MIC, microdilution broth method (NCCLS)
Type: cell-based
measurement.setup: Streptococcus pneumoniae, Table 1, 6-Carbamoyl-3-Acyl Macrolide Derivatives, read-out: MIC Values, D: S. pneumoniae ATCC49619
# MIC annotations
quantity: MIC (µg/mL)

INSERT INTO results (structure_smiles_string, quantitative_readout) VALUES
  ('CC[C@H]1OC(=O)[C@H](C)[C@@H](OC(C)=O)[C@H](C)[C@@H](O[C@@H]2O[C@H](C)C[C@H](N(C)C)[C@H]2O)[C@](C)(OC(=O)NC/C=C/c2ccc(-c3ncccn3)cc2)C[C@@H](C)C(=O)[C@H](C)[C@H]2NC(=O)O[C@@]21C', 0.06),
  ('CC[C@H]1OC(=O)[C@H](C)[C@@H](OC(=O)Cc2cccnc2)[C@H](C)[C@@H](O[C@@H]2O[C@H](C)C[C@H](N(C)C)[C@H]2O)[C@](C)(OC(=O)NC/C=C/c2ccc(-c3ncccn3)cc2)C[C@@H](C)C(=O)[C@H](C)[C@H]2NC(=O)O[C@@]21C', 0.06);

###

Overview of recorded MIC for various compounds
Tested on: S. pneumoniae ATCC49619
assay.info: MIC, microdilution broth method (NCCLS)
Format: cell-based
measurement.setup: Streptococcus pneumoniae, Table 1, 6-Carbamoyl-3-Acyl Macrolide Derivatives, read-out: MIC Values, D: S. pneumoniae ATCC49619
quantity: MIC (µg/mL)

INSERT INTO measurements (compound, unit_of_measure, quantitative_readout) VALUES
  ('CC[C@H]1OC(=O)[C@H](C)[C@@H](OC(=O)Cc2cn(C)c3ccccc23)[C@H](C)[C@@H](O[C@@H]2O[C@H](C)C[C@H](N(C)C)[C@H]2O)[C@](C)(OC(=O)NC/C=C/c2ccc(-c3ncccn3)cc2)C[C@@H](C)C(=O)[C@H](C)[C@H]2NC(=O)O[C@@]21C [Compound 11]', 'µg/mL', 0.25),
  ('CC[C@H]1OC(=O)[C@H](C)[C@@H](OC(=O)Cc2ccncc2)[C@H](C)[C@@H](O[C@@H]2O[C@H](C)C[C@H](N(C)C)[C@H]2O)[C@](C)(OC(=O)NC/C=C/c2ccc(-c3ncccn3)cc2)C[C@@H](C)C(=O)[C@H](C)[C@H]2NC(=O)O[C@@]21C [Compound 8]', 'µg/mL', 0.06),
  ('CC[C@H]1OC(=O)[C@H](C)[C@@H](OC(=O)Cc2cccnc2)[C@H](C)[C@@H](O[C@@H]2O[C@H](C)C[C@H](N(C)C)[C@H]2O)[C@](C)(OC(=O)NC/C=C/c2ccnc3ccccc23)C[C@@H](C)C(=O)[C@H](C)[C@H]2NC(=O)O[C@@]21C [Compound 34]', 'µg/mL', 0.03),
  ('CC[C@H]1OC(=O)[C@H](C)[C@@H](OC(=O)C(C)C)[C@H](C)[C@@H](O[C@@H]2O[C@H](C)C[C@H](N(C)C)[C@H]2O)[C@](C)(OC(=O)NC/C=C/c2cccnc2)C[C@@H](C)C(=O)[C@H](C)[C@H]2NC(=O)O[C@@]21C [Compound 17]', 'µg/mL', 0.06),
  ('CC[C@H]1OC(=O)[C@H](C)[C@@H](OC(=O)c2cccnc2)[C@H](C)[C@@H](O[C@@H]2O[C@H](C)C[C@H](N(C)C)[C@H]2O)[C@](C)(OC(=O)NC/C=C/c2ccc(-c3ncccn3)cc2)C[C@@H](C)C(=O)[C@H](C)[C@H]2NC(=O)O[C@@]21C [Compound 7]', 'µg/mL', 0.06),
  ('CC[C@H]1OC(=O)[C@H](C)[C@@H](OC(=O)Cc2cccnc2)[C@H](C)[C@@H](O[C@@H]2O[C@H](C)C[C@H](N(C)C)[C@H]2O)[C@](C)(OC(=O)NC/C=C/c2ccccc2)C[C@@H](C)C(=O)[C@H](C)[C@H]2NC(=O)O[C@@]21C [Compound 21]', 'µg/mL', 0.06),
  ('CC[C@H]1OC(=O)[C@H](C)[C@@H](OC(=O)Cc2cccnc2)[C@H](C)[C@@H](O[C@@H]2O[C@H](C)C[C@H](N(C)C)[C@H]2O)[C@](C)(OC(=O)NC/C=C/c2cnc(C(F)(F)F)nc2)C[C@@H](C)C(=O)[C@H](C)[C@H]2NC(=O)O[C@@]21C [Compound 38]', 'µg/mL', 0.12);

###

System: E. faecalis ATCC29212
assay.info: MIC, microdilution broth method (NCCLS)
Format: cell-based
measurement.setup: Enterococcus faecalis, Table 2, 3,6-Dicarbamoyl Macrolide Derivatives, read-out: MIC Values, C: E. faecalis ATCC29212
quantity: MIC (µg/mL)

INSERT INTO measurements (molecule, measured_on, unit_of_measure, quantitative_readout) VALUES
  ('CC[C@H]1OC(=O)[C@H](C)[C@@H](OC(=O)Nc2ccc(Cl)c(Cl)c2)[C@H](C)[C@@H](O[C@@H]2O[C@H](C)C[C@H](N(C)C)[C@H]2O)[C@](C)(OC(=O)NC/C=C/c2ccc(-c3ncccn3)cc2)C[C@@H](C)C(=O)[C@H](C)[C@H]2NC(=O)O[C@@]21C [Compound 54]', 'E. faecalis ATCC29212', 'µg/mL', 2),
  ('CC[C@H]1OC(=O)[C@H](C)[C@@H](OC(=O)N2CCCCC2)[C@H](C)[C@@H](O[C@@H]2O[C@H](C)C[C@H](N(C)C)[C@H]2O)[C@](C)(OC(=O)NC/C=C/c2ccc(-c3ncccn3)cc2)C[C@@H](C)C(=O)[C@H](C)[C@H]2NC(=O)O[C@@]21C [Compound 64]', 'E. faecalis ATCC29212', 'µg/mL', 0.5);

###

Test system: E. faecalis ATCC29212
assay.info: MIC, microdilution broth method (NCCLS)
Assay type: cell-based
measurement.setup: Enterococcus faecalis, Table 1, 6-Carbamoyl-3-Acyl Macrolide Derivatives, read-out: MIC Values, C: E. faecalis ATCC29212
quantity: MIC (µg/mL)

INSERT INTO assay_data (structure_smiles_string, quantitative_readout) VALUES
  ('CC[C@H]1OC(=O)[C@H](C)[C@@H](OC(=O)Cc2ccccn2)[C@H](C)[C@@H](O[C@@H]2O[C@H](C)C[C@H](N(C)C)[C@H]2O)[C@](C)(OC(=O)NC/C=C/c2cccnc2)C[C@@H](C)C(=O)[C@H](C)[C@H]2NC(=O)O[C@@]21C', 0.25),
  ('CC[C@H]1OC(=O)[C@H](C)[C@@H](OC(=O)Cc2cccnc2)[C@H](C)[C@@H](O[C@@H]2O[C@H](C)C[C@H](N(C)C)[C@H]2O)[C@](C)(OC(=O)NC/C=C/c2cnc(C(C)(C)C)nc2)C[C@@H](C)C(=O)[C@H](C)[C@H]2NC(=O)O[C@@]21C', 0.5),
  ('CCC(=O)O[C@H]1[C@H](C)[C@@H](O[C@@H]2O[C@H](C)C[C@H](N(C)C)[C@H]2O)[C@](C)(OC(=O)NC/C=C/c2ccc(-c3ncccn3)cc2)C[C@@H](C)C(=O)[C@H](C)[C@H]2NC(=O)O[C@]2(C)[C@@H](CC)OC(=O)[C@@H]1C', 0.25),
  ('CC[C@H]1OC(=O)[C@H](C)[C@@H](OC(=O)Cc2cccnc2)[C@H](C)[C@@H](O[C@@H]2O[C@H](C)C[C@H](N(C)C)[C@H]2O)[C@](C)(OC(=O)NC/C=C/c2cnc3ccccc3c2)C[C@@H](C)C(=O)[C@H](C)[C@H]2NC(=O)O[C@@]21C', 0.5),
  ('CC[C@H]1OC(=O)[C@H](C)[C@@H](OC(=O)Cc2cccnc2)[C@H](C)[C@@H](O[C@@H]2O[C@H](C)C[C@H](N(C)C)[C@H]2O)[C@](C)(OC(=O)NC/C=C/c2ccc(-c3ncccn3)cc2)C[C@@H](C)C(=O)[C@H](C)[C@H]2NC(=O)O[C@@]21C', 0.25),
  ('CC[C@H]1OC(=O)[C@H](C)[C@@H](OC(=O)C(C)C)[C@H](C)[C@@H](O[C@@H]2O[C@H](C)C[C@H](N(C)C)[C@H]2O)[C@](C)(OC(=O)NC/C=C/c2ccc(-c3cccnn3)cc2)C[C@@H](C)C(=O)[C@H](C)[C@H]2NC(=O)O[C@@]21C', 0.12),
  ('CC[C@H]1OC(=O)[C@H](C)[C@@H](OC(=O)/C=C/c2cccnc2)[C@H](C)[C@@H](O[C@@H]2O[C@H](C)C[C@H](N(C)C)[C@H]2O)[C@](C)(OC(=O)NC/C=C/c2ccc(-c3ncccn3)cc2)C[C@@H](C)C(=O)[C@H](C)[C@H]2NC(=O)O[C@@]21C', 1),
  ('CC[C@H]1OC(=O)[C@H](C)[C@@H](OC(=O)Cc2cccnc2)[C@H](C)[C@@H](O[C@@H]2O[C@H](C)C[C@H](N(C)C)[C@H]2O)[C@](C)(OC(=O)NC/C=C/C=C/c2cccnc2)C[C@@H](C)C(=O)[C@H](C)[C@H]2NC(=O)O[C@@]21C', 0.25),
  ('CC[C@H]1OC(=O)[C@H](C)[C@@H](OC(=O)Cc2ccccn2)[C@H](C)[C@@H](O[C@@H]2O[C@H](C)C[C@H](N(C)C)[C@H]2O)[C@](C)(OC(=O)NC/C=C/C=C/c2cccnc2)C[C@@H](C)C(=O)[C@H](C)[C@H]2NC(=O)O[C@@]21C', 0.25),
  ('CC[C@H]1OC(=O)[C@H](C)[C@@H](OC(=O)C(C)C)[C@H](C)[C@@H](O[C@@H]2O[C@H](C)C[C@H](N(C)C)[C@H]2OC(C)=O)[C@](C)(OC(=O)NC/C=C/c2ccc(-n3cccn3)cc2)C[C@@H](C)C(=O)[C@H](C)[C@H]2NC(=O)O[C@@]21C', 0.5),
  ('CC[C@H]1OC(=O)[C@H](C)[C@@H](OC(=O)C(C)C)[C@H](C)[C@@H](O[C@@H]2O[C@H](C)C[C@H](N(C)C)[C@H]2O)[C@](C)(OC(=O)NC/C=C/c2ccc(-c3ccn(C)n3)cc2)C[C@@H](C)C(=O)[C@H](C)[C@H]2NC(=O)O[C@@]21C', 1),
  ('CC[C@H]1OC(=O)[C@H](C)[C@@H](OC(=O)C(C)C)[C@H](C)[C@@H](O[C@@H]2O[C@H](C)C[C@H](N(C)C)[C@H]2O)[C@](C)(OC(=O)NC/C=C/c2cnc3ccccc3c2)C[C@@H](C)C(=O)[C@H](C)[C@H]2NC(=O)O[C@@]21C', 0.25),
  ('CC[C@H]1OC(=O)[C@H](C)[C@@H](OC(=O)Cc2cccnc2)[C@H](C)[C@@H](O[C@@H]2O[C@H](C)C[C@H](N(C)C)[C@H]2O)[C@](C)(OC(=O)NC/C=C/C=C/c2ccccn2)C[C@@H](C)C(=O)[C@H](C)[C@H]2NC(=O)O[C@@]21C', 0.25),
  ('CC[C@H]1OC(=O)[C@H](C)[C@@H](OC(=O)Cc2cccnc2)[C@H](C)[C@@H](O[C@@H]2O[C@H](C)C[C@H](N(C)C)[C@H]2O)[C@](C)(OC(=O)NC/C=C/c2cccnc2)C[C@@H](C)C(=O)[C@H](C)[C@H]2NC(=O)O[C@@]21C', 0.25);
